unfolding enthalpy (van 't Hoff): recorded values
B1: Guanyl-specific ribonuclease Sa, P05798 (parent)
chain: DVSGTVCLSALPPEATDTLNLIASDGPFPYSQDGVVFQNRESVLPTQSYGYYHEYTVITPGARTRGTRRIITGEATQEDYYTGDHYATFSLIDQTC

Variants of: B1
experimental.setup: Kitasatospora aureofaciens; pH 5.5; Thermal; DSC; sodium acetate potassium chloride 0.01 M 0.05 M; reversible: yes (90-95%); structure 1RGG; whole UniProt chain shown
Record the value in kcal/mol, omitting the unit from your answer.

Recorded unfolding enthalpy (van 't Hoff), per entry:
var	measured.endpoint	number
E74K	unfolding enthalpy (van 't Hoff)	99
E41K	unfolding enthalpy (van 't Hoff)	101
R65A	unfolding enthalpy (van 't Hoff)	78

Noted for H85Q : its unfolding enthalpy (van 't Hoff) reads 105
